- experimental-target: Protein cereblon/Androgen receptor (Homo sapiens, UniProt P10275+Q96SW2)
- Sequence (P10275 whole entry, looked up): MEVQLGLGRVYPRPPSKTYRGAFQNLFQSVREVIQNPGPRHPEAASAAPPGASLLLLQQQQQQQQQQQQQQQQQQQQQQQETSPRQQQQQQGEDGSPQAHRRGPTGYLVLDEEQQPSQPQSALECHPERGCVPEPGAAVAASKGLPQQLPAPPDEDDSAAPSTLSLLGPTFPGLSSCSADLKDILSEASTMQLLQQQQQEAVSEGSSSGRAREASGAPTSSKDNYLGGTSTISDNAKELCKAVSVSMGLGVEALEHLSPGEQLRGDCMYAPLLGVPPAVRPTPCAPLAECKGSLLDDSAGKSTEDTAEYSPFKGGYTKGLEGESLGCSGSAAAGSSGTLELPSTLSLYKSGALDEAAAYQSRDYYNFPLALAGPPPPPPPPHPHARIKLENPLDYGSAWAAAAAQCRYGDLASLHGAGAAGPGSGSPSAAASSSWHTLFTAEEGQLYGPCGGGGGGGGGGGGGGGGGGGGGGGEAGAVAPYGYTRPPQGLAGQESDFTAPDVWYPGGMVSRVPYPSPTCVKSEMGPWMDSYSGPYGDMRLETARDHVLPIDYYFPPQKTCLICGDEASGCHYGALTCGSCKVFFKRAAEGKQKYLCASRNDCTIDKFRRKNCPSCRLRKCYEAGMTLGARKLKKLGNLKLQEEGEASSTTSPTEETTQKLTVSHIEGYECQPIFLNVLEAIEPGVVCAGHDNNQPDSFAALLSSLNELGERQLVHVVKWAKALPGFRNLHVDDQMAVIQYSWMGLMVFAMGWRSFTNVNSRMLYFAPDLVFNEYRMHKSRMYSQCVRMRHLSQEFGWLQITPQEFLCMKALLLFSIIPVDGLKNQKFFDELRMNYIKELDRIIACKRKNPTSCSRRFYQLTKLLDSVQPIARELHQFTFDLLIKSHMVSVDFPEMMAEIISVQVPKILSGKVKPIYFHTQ
- Sequence (Q96SW2 whole entry, looked up): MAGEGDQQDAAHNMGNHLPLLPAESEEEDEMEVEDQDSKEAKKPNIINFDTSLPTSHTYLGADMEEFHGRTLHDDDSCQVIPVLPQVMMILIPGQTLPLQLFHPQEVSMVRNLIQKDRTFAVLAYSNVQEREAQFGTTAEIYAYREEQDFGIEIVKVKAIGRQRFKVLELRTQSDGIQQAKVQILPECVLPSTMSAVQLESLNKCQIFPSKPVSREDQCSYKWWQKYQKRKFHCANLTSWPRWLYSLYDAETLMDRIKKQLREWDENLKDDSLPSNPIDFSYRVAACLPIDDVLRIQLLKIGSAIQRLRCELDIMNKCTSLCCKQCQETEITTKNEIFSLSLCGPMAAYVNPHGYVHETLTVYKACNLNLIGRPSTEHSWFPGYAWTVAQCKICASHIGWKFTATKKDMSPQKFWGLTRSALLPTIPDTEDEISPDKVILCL
- assay-details: Protac activity at CRBN/AR in human LNCaP cells assessed as AR degradation at 1 uM by Western blotting analysis relative to control
- Assay type: cell-based
measured-attribute: Activity
Note to self: number, then unit, no commentary.

Challenge: Activity for CC1(C)[C@H](NC(=O)c2ccc(N3CCN(CC4CCN(C(=O)COc5ccc6nnn(C7CCC(=O)NC7=O)c(=O)c6c5)CC4)CC3)cc2)C(C)(C)[C@H]1Oc1ccc(C#N)c(Cl)c1 (stereo not given in full) ?
Response given: 40%

Challenge: Activity for CC1(C)[C@H](NC(=O)c2ccc(N3CCN(CCC4CCN(C(=O)C5CCN(c6ccc7nnn(C8CCC(=O)NC8=O)c(=O)c7c6)CC5)CC4)CC3)cc2)C(C)(C)[C@H]1Oc1ccc(C#N)c(Cl)c1 (stereo not given in full) ?
Response given: 93%

Challenge: Activity for CC1(C)[C@H](NC(=O)c2ccc(N3CCN(CC4CCN(c5ccc6nnn(C7CCC(=O)NC7=O)c(=O)c6c5)CC4)CC3)cc2)C(C)(C)[C@H]1Oc1ccc(C#N)c(Cl)c1 (stereo not given in full) ?
Response given: 91%

Challenge: Activity for CC1(C)[C@H](NC(=O)c2ccc(N3CCN(C4CC5(CCN(c6cccc7nnn(C8CCC(=O)NC8=O)c(=O)c67)CC5)C4)CC3)cc2)C(C)(C)[C@H]1Oc1ccc(C#N)c(Cl)c1 (stereo not given in full) ?
Response given: 26%

Challenge: Activity for CC1(C)[C@H](NC(=O)c2ccc(N3CCN(CCC4CCN(c5ccc6nnn(C7CCC(=O)NC7=O)c(=O)c6c5)CC4)CC3)cc2)C(C)(C)[C@H]1Oc1ccc(C#N)c(Cl)c1 (stereo not given in full) ?
Response given: 94%
